Molecular target: BCL6 (Homo sapiens, UniProt P41182)
Construct: HiBiT-tag knocked into endogenous BCL6 locus using CRISPR; endogenous in cells; host or cells: DHL-4_BCL6_HiBiT cells (CRISPR knock-in)
Assay: BCL6_HiBiT degradation assay (2 h)
Type: cell-based
Details: DHL-4_BCL6_HiBiT cells
value_type: YCon (% remaining maximal effect)

Give the reported YCon (% remaining maximal effect) for this compound. CC1CN(c2ncc(Cl)c(Nc3ccc4c(c3)CC(=O)N4C)n2)CCCC1Nc1ccc2c(C3CCC(=O)NC3=O)nn(C)c2c1 (single isomer, unassigned) [Example 50]
(>60%)

Indicate the recorded YCon (% remaining maximal effect) value for this compound: CN1C(=O)Cc2cc(Nc3nc(N4CCC(Nc5ccc6c(C7CCC(=O)NC7=O)nn(C)c6c5)CC4)ncc3Cl)ccc21 (single isomer, unassigned) [Example 53]
^^ (20-60%)

Output YCon (% remaining maximal effect) of CC1CN(c2ncc(Cl)c(Nc3ccc4c(c3)CC(=O)N4C)n2)CCCC1Nc1ccc2c(C3CCC(=O)NC3=O)nn(C)c2c1 (single isomer, unassigned) [Example 51]
^^ (20-60%)

Give recorded YCon (% remaining maximal effect). CN1C(=O)Cc2cc(Nc3nc(N4CCC(Nc5ccc6c(C7CCC(=O)NC7=O)nn(C)c6c5)CC4)ncc3Cl)ccc21 (single isomer, unassigned) [Example 54]
(>60%)

* * *

Field: Percent BCL6 remaining at maximal degradation (Ycon). Provide a value for each of the compounds that follow.
Target: BCL6 (Homo sapiens)
Construct: HiBiT-tag knocked into endogenous BCL6 locus using CRISPR; endogenous in cells; host or cells: DHL-4_BCL6_HiBiT cells (CRISPR knock-in)
Assay: BCL6_HiBiT degradation assay (2 h)
Assay type: cell-based
Conditions: DHL-4_BCL6_HiBiT cells, read-out: YCon (% remaining maximal effect)

Give the value of Percent BCL6 remaining at maximal degradation (Ycon) reported for the following: C[C@@H]1CN(c2ncc(Cl)c(Nc3ccc4c(c3)CC(=O)N4CCN3CCOCC3)n2)CC[C@H]1Nc1ccc2c([C@H]3CCC(=O)NC3=O)nn(C)c2c1 (single isomer, unassigned) [Example 102]
< 20%

For each of the compounds below, note its Percent BCL6 remaining at maximal degradation (Ycon).
1. CN(c1ccc2c(C3CCC(=O)NC3=O)nn(C)c2c1)C1CCN(c2ncc(Cl)c(Nc3ccc4c(c3)N(CCC(C)(C)O)C(=O)C4)n2)CC1 (centres unmarked) [Example 10]
2. C[C@@H]1CN(c2nc(F)c(Cl)c(Nc3ccc4c(c3)CC(=O)N4C)n2)CC[C@H]1Nc1ccc2c(C3CCC(=O)NC3=O)nn(C)c2c1 (some centres unmarked) [Example 123]
3. C[C@@H]1CN(c2ncc(Cl)c(Nc3ccc4c(c3)N(CCC(C)(C)O)C(=O)C4)n2)CC[C@H]1Nc1ccc2c(C3CCC(=O)NC3=O)nn(C)c2c1 (some centres unmarked) [Example 120]
4. CN1C(=O)Cc2cc(Nc3nc(N4CC[C@@H](Nc5ccc6c(C7CCC(=O)NC7=O)nn(C)c6c5)[C@@H](C(F)(F)F)C4)ncc3Cl)ccc21 (single isomer, unassigned) [Example 148]

20 to 60%
< 20%
< 20%
> 60%

* * *

Molecular target: BCL6 (Homo sapiens, UniProt P41182)
Construct: HiBiT-tag knocked into endogenous BCL6 locus using CRISPR; endogenous in cells; host or cells: DHL-4_BCL6_HiBiT cells (CRISPR knock-in)
Test: BCL6_HiBiT degradation assay (2 h)
Format: cell-based
Settings: DHL-4_BCL6_HiBiT cells, read-out: YCon (% remaining maximal effect)
Kindly supply the reported Percent BCL6 remaining at maximal degradation (Ycon) values for the records listed here.

Solved cases (3 shown):
Name the recorded Percent BCL6 remaining at maximal degradation (Ycon) of the molecule listed here: C[C@@H]1CN(c2ncc(C#N)c(Nc3ccc4c(c3)CC(=O)N4C)n2)CC[C@H]1Nc1ccc2c(N3CCC(=O)NC3=O)nn(C)c2c1
< 20%

# return recorded Percent BCL6 remaining at maximal degradation (Ycon) for input C[C@H]1CN(c2ccc3c(C4CCC(=O)NC4=O)nn(C)c3c2)C(=O)C[C@H]1N(C)c1ncc(Cl)c(Nc2ccc3c(c2)CC(=O)N3C)n1 (some centres unmarked)
20 to 60%

Note Percent BCL6 remaining at maximal degradation (Ycon) for the molecule shown: CC1CCN(c2ncc(Cl)c(Nc3ccc4c(c3)CC(=O)N4C)n2)CCC1Nc1ccc2c(C3CCC(=O)NC3=O)nn(C)c2c1 (single isomer, unassigned) [Example 48]
> 60%

Dear colleague, could you send me Percent BCL6 remaining at maximal degradation (Ycon) for each of the items below? Thanks.
1. CN1C(=O)Cc2cc(Nc3nc(N4CCC(c5ccc6c(C7CCC(=O)NC7=O)nn(C)c6c5)CC4)ncc3Cl)ccc21 (centres unmarked)
2. CN1C(=O)Cc2cc(Nc3nc(N4CC[C@H](Nc5ccc6c(C7CCC(=O)NC7=O)nn(C)c6c5)[C@H](C(F)(F)F)C4)ncc3Cl)ccc21 (relative stereo)

> 60%
> 60%

Quick batch: Percent BCL6 remaining at maximal degradation (Ycon) for everything below.
1. C[C@@H]1CN(c2ncc(Cl)c(Nc3ccc4c(c3)CC(=O)N4CCN3CCOCC3)n2)CC[C@H]1Nc1ccc2c([C@@H]3CCC(=O)NC3=O)nn(C)c2c1 (single isomer, unassigned)
2. C[C@@H]1CN(c2ncc(Cl)c(Nc3ccc4c(c3)CC(=O)N4CCCC(F)(F)F)n2)CC[C@H]1Nc1ccc2c(C3CCC(=O)NC3=O)nn(C)c2c1 (some centres unmarked)
3. C[C@@H]1CN(c2ncc(C#N)c(Nc3ccc4c(c3)CC(=O)N4C)n2)CC[C@H]1Nc1ccc2c(C3CCC(=O)NC3=O)nn(C)c2c1 (some centres unmarked)
4. CNCCN1C(=O)Cc2cc(Nc3nc(N4CC[C@@H](Nc5ccc6c(C7CCC(=O)NC7=O)nn(C)c6c5)[C@H](C)C4)ncc3Cl)ccc21 (some centres unmarked)
5. CN1C(=O)Cc2cc(Nc3nc(N(C)[C@H]4CCN(c5ccc6c(C7CCC(=O)NC7=O)nn(C)c6c5)C(=O)C4)ncc3Cl)ccc21 (single isomer, unassigned)

< 20%
< 20%
< 20%
< 20%
20 to 60%

Retrieve Percent BCL6 remaining at maximal degradation (Ycon) measured for CN1C(=O)Cc2cc(Nc3nc(N(C)C4CC5CCC(C4)N5c4ccc5c(C6CCC(=O)NC6=O)nn(C)c5c4)ncc3Cl)ccc21 (centres unmarked) and print it.
> 60%

Cited source: patent US12404239B2
